- assay.name: AUC in mouse at 10 mg/kg, po
- Assay type: ADME, organism-based
- Parameters: dose 10 mg/kg, route oral
- condition.parameters: plasma
measured.parameter: AUC (µM·h)
Respond numerically; units are µM·h and should not be typed.

IN: Can you look up the measured AUC of CCc1cccc(CC)c1NC(=O)c1nn(C)c2c1CCc1cnc(Nc3ccc(C(=O)N4CCCN(C)CC4)cc3OC(F)(F)F)nc1-2 for me?
OUT: 0.64

* * *

Readings of IC50 for the listed compounds
- tested.on: Cyclin-dependent kinase 2/cyclin A (Homo sapiens, UniProt P24941)
- assay.name: Inhibition of CDK2/Cyclin A assessed as [33P]-gamma-ATP incorporation into substrate by gamma counting

The cases that follow already have their IC50 on record.
{"columns": ["compound.string", "measured.parameter", "measurement"],
 "data": [
  ["CCc1cccc(CC)c1NC(=O)c1nn(C)c2c1CCc1cnc(Nc3ccccc3OC(F)(F)F)nc1-2", "IC50", "> 10 µM"],
  ["CCc1cccc(CC)c1NC(=O)c1nn(C)c2c1CCc1cnc(Nc3ccc(C(=O)NCCN(C)C)cc3OC(F)(F)F)nc1-2", "IC50", "> 10 µM"],
  ["CCc1cccc(CC)c1NC(=O)c1nn(C)c2c1CCc1cnc(Nc3ccc(C(=O)N4CCC[C@@H]4CN4CCCC4)cc3OC(F)(F)F)nc1-2", "IC50", "> 10 µM"],
  ["CCc1cccc(CC)c1NC(=O)c1nn(C)c2c1CCc1cnc(Nc3ccc(C(=O)NC4CCN(C)CC4)cc3OC)nc1-2", "IC50", "> 10 µM"]
]}

IN: Entry under review: CCc1cccc(CC)c1NC(=O)c1nn(C)c2c1CCc1cnc(Nc3ccc(C(=O)N4CCC(N(C)C)CC4)cc3OC(F)(F)F)nc1-2 . Reported IC50?
OUT: > 10 µM

IN: Endpoint output: IC50 of CCc1cccc(CC)c1NC(=O)c1nn(C)c2c1CCc1cnc(Nc3ccc(C(=O)N4CCCN(C)CC4)cc3OC(F)(F)F)nc1-2 . Value?
OUT: > 10 µM

IN: Name the reported IC50 value associated with the compound CCc1cccc(CC)c1NC(=O)c1nn(C)c2c1CCc1cnc(Nc3ccc(C(=O)NCCN(C)C)cc3OC)nc1-2
OUT: > 10 µM

IN: // query IC50 value for entry CCc1cccc(CC)c1NC(=O)c1nn(C)c2c1CCc1cnc(Nc3ccc(C(N)=O)cc3OC)nc1-2
OUT: 5.57 µM

IN: Would you mind telling me what IC50 value was observed for CCc1cccc(CC)c1NC(=O)c1nn(C)c2c1CCc1cnc(Nc3ccc(C(=O)N4CCC(N(C)C)CC4)cc3OC)nc1-2 ?
OUT: > 10 µM

* * *

pIC50: −log10 of the molar value.
// Serine/threonine-protein kinase PLK1 (Homo sapiens) pIC50 records

Below, each entry is followed by its recorded pIC50 result.
{"columns": ["compound.string", "tested.on", "measurement"],
 "data": [
  ["CCc1cccc(CC)c1NC(=O)c1nn(C)c2c1CCc1cnc(Nc3ccccc3)nc1-2", "Serine/threonine-protein kinase PLK1 (Homo sapiens)", "< 5.00"],
  ["CCc1cccc(CC)c1NC(=O)c1nn(C)c2c1CCc1cnc(Nc3ccc(C(=O)NC4CCN(C)CC4)cc3OC)nc1-2", "Serine/threonine-protein kinase PLK1 (Homo sapiens)", 6.63],
  ["Cn1nc(C(=O)NCCc2ccccc2)c2c1-c1nc(Nc3ccccc3)ncc1CC2", "Serine/threonine-protein kinase PLK1 (Homo sapiens)", "< 5.00"]
]}

IN: Please report the recorded pIC50 for CCc1cccc(CC)c1NC(=O)c1nn(C)c2c1CCc1cnc(Nc3ccc(C(=O)NCCN(C)C)cc3OC(F)(F)F)nc1-2 .
OUT: < 5.00

IN: Can you share its pIC50? I mean this compound: CCc1cccc(CC)c1NC(=O)c1nn(C)c2c1CCc1cnc(Nc3ccc(C(=O)NCCN(C)C)cc3OC)nc1-2
OUT: 5.78

IN: Field request: pIC50 | item: CCc1cccc(CC)c1NC(=O)c1nn(C)c2c1CCc1cnc(Nc3ccc(C(N)=O)cc3OC)nc1-2
OUT: 5.52

IN: Name the reported pIC50 value associated with the compound CCc1cccc(CC)c1NC(=O)c1nn(C)c2c1CCc1cnc(Nc3ccc(C(=O)N4CCC(N(C)C)CC4)cc3OC(F)(F)F)nc1-2
OUT: < 5.00

IN: What does the record list as pIC50 for CCc1cccc(CC)c1NC(=O)c1nn(C)c2c1CCc1cnc(Nc3ccc(C(=O)N4CCC(N(C)C)CC4)cc3OC)nc1-2 ?
OUT: < 5.00

* * *

- assay.name: Half life in mouse at 10 mg/kg, po
- Type: ADME, organism-based
- Design: dose 10 mg/kg, route oral
- condition.parameters: in vivo
measured.parameter: half-life (h)
Return type: number; implicit unit h.

IN: Entry under review: CCc1cccc(CC)c1NC(=O)c1nn(C)c2c1CCc1cnc(Nc3ccc(C(=O)N4CCCN(C)CC4)cc3OC(F)(F)F)nc1-2 . Reported half-life?
OUT: 2.92

* * *

- tested.on: UniProt O14965
- Sequence (O14965 whole entry): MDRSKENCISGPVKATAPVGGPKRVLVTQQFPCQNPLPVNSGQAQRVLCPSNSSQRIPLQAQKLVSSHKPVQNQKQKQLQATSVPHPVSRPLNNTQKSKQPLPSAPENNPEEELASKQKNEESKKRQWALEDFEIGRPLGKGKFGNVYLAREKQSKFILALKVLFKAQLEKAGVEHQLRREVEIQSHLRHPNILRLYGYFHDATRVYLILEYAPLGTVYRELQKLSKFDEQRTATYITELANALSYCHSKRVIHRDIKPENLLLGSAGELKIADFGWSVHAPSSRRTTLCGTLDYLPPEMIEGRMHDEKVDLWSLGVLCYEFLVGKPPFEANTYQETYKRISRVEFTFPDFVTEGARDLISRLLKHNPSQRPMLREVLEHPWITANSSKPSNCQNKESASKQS
IC50 for assorted molecules
Please report the result as a number followed by the unit.

{"columns": ["compound.string", "measurement"],
 "data": [
  ["CCc1cccc(CC)c1NC(=O)c1nn(C)c2c1CCc1cnc(Nc3ccc(C(N)=O)cc3OC)nc1-2", "768 nM"],
  ["CCc1cccc(CC)c1NC(=O)c1nn(C)c2c1CCc1cnc(Nc3ccc(C(=O)N4CCC[C@@H]4CN4CCCC4)cc3OC)nc1-2", "1380 nM"]
]}

IN: Quick check: IC50 of CCc1cccc(CC)c1NC(=O)c1nn(C)c2c1CCc1cnc(Nc3ccc(C(=O)NCCN(C)C)cc3OC(F)(F)F)nc1-2 ?
OUT: 1380 nM

IN: For the molecule CCc1cccc(CC)c1NC(=O)c1nn(C)c2c1CCc1cnc(Nc3ccc(C(=O)NCCN(C)C)cc3OC)nc1-2 , what IC50 is on record?
OUT: 750 nM

* * *

- assay.name: Clearance in mouse at 10 mg/kg, iv
- Assay type: ADME, organism-based
- Set-up: dose 10 mg/kg, route intravenous
- condition.parameters: in vivo
measured.parameter: clearance (mL/min/kg)
Give just the number in mL/min/kg; leave the unit off.

IN: Query (compound): CCc1cccc(CC)c1NC(=O)c1nn(C)c2c1CCc1cnc(Nc3ccc(C(=O)N4CCCN(C)CC4)cc3OC(F)(F)F)nc1-2 ; field requested: clearance
OUT: 77.5

* * *

- Tested on: U2OS
- assay.name: Inhibition of mitosis in human U2OS cells assessed as histone H3 phosphorylation at Ser 10 residue after 2 hrs by immunoassay
- Format: functional, cell-based
Overview of recorded IC50 for various compounds
Output should be the measured figure followed by the unit it is expressed in.

These solved cases illustrate the format of a correct answer.
{"columns": ["compound.string", "IC50"],
 "data": [
  ["CCc1cccc(CC)c1NC(=O)c1nn(C)c2c1CCc1cnc(Nc3ccc(C(=O)N4CCC(N(C)C)CC4)cc3OC(F)(F)F)nc1-2", "40 nM"],
  ["CCc1cccc(CC)c1NC(=O)c1nn(C)c2c1CCc1cnc(Nc3ccc(C(=O)N4CCC[C@H]4CN4CCCC4)cc3OC(F)(F)F)nc1-2", "260 nM"],
  ["CCc1cccc(CC)c1NC(=O)c1nn(C)c2c1CCc1cnc(Nc3ccc(C(=O)N4CCC[C@@H]4CN4CCCC4)cc3OC(F)(F)F)nc1-2", "210 nM"]
]}

--- query ---
IN: Which IC50 reading was recorded for the compound CCc1cccc(CC)c1NC(=O)c1nn(C)c2c1CCc1cnc(Nc3ccc(C(N)=O)cc3OC(F)(F)F)nc1-2 ?
OUT: 160 nM

* * *

- assay.name: Solubility of the compound at pH 7
- Type: physicochemical
- condition.parameters: buffer
solubility values for the molecules below.
State the answer as a number, implicitly in µM.

Consider the worked cases shown below.
{"columns": ["compound.string", "measured.parameter", "display.unit", "measurement"],
 "data": [
  ["CCc1cccc(CC)c1NC(=O)c1nn(C)c2c1CCc1cnc(Nc3ccc(C(=O)NC4CCN(C)CC4)cc3OC)nc1-2", "solubility", "µM", 3],
  ["CCc1cccc(CC)c1NC(=O)c1nn(C)c2c1CCc1cnc(Nc3ccc(C(=O)N4CCCN(C)CC4)cc3OC(F)(F)F)nc1-2", "solubility", "µM", 46],
  ["CCc1cccc(CC)c1NC(=O)c1nn(C)c2c1CCc1cnc(Nc3ccc(C(=O)N4CCC(N(C)C)CC4)cc3OC)nc1-2", "solubility", "µM", 116],
  ["CCc1cccc(CC)c1NC(=O)c1nn(C)c2c1CCc1cnc(Nc3ccc(C(=O)N4CCC[C@H]4CN4CCCC4)cc3OC)nc1-2", "solubility", "µM", 96],
  ["CCc1cccc(CC)c1NC(=O)c1nn(C)c2c1CCc1cnc(Nc3ccc(C(=O)N4CCCN(C)CC4)cc3OC)nc1-2", "solubility", "µM", 59]
]}

IN: Report solubility for CCc1cccc(CC)c1NC(=O)c1nn(C)c2c1CCc1cnc(Nc3ccc(C(=O)N4CCC[C@@H]4CN4CCCC4)cc3OC(F)(F)F)nc1-2 please.
OUT: 65

IN: Value lookup for solubility; key = CCc1cccc(CC)c1NC(=O)c1nn(C)c2c1CCc1cnc(Nc3ccc(C(=O)N4CCC(N(C)C)CC4)cc3OC(F)(F)F)nc1-2
OUT: 70

IN: If you can, please state the reported solubility value of CCc1cccc(CC)c1NC(=O)c1nn(C)c2c1CCc1cnc(Nc3ccc(C(=O)NCCN(C)C)cc3OC)nc1-2 .
OUT: 44
